Measurement Name: melting point

* CC(=O)OCS(=O)(=O)C1=CCC2C3CCC4=CC(=O)C=CC4(C)C3(F)C(O)CC12C (centres undefined) | 186 to 187 °C
* OCC1OC2CC(O)CC(C2)O1 (centres undefined) | 146 to 149 °C
* Nc1ccc(C23CC2C(=O)N(Cc2ccccc2)C3=O)cc1 (centres undefined) | 147 to 149 °C
* COc1ccc(C2CCN(C(=O)C(N)=O)CC2)cc1OC1CCCC1 | 66 to 66.5 °C
* O=C(Oc1cccc2c(C(=O)c3ccc(F)cc3)c(-c3ccc(OCCN4CCCC4)cc3)sc12)c1ccc(F)cc1 | 64 to 68 °C
* O=C(NC1CCN(Cc2ccccc2)CC1)c1ccc(NCc2ccnc3ccccc23)cc1 | 184 to 188 °C
* C[C@H](NC(=O)C[C@@H](CCO)c1ccc(F)cc1)c1ccccc1 | 170 °C
* COc1ccc(N2CCN(c3nc(NC(C)(C)C(C)(C)C)nc(NC(C)(C)C(C)(C)C)n3)CC2)cc1 | 155 to 157 °C
* CCCCc1nc2c(N)nc(C)c(C)c2n1CCCCNS(=O)(=O)N(C)C | 130 to 131 °C

Source: a melting point compilation (Tetko et al.; mined from patent text by program, amines drawn as free bases though some values may be those of a salt)
